Assay: In vivo pharmacokinetics in plasma after oral gavage (PO) in male CD-1 mice
Conditions: mouse; single PO dose 5 mg/kg, male CD-1 mice, plasma; read-out: t½ (converted)
REPORTED METRIC: half-life (h)
One number for each entry, in h.

These recorded examples may help you get a feel for the data.
RECORD SMILES: CC(C)(c1ccc(OCc2ncc(S(C)(=O)=O)o2)cc1)c1cc(Cl)c(OCCCl)c(Cl)c1
UNIT OF MEASURE: h
half-life: 12

RECORD SMILES: CC(C)(c1ccc(OCc2coc(NS(C)(=O)=O)n2)cc1)c1cc(Cl)c(OCCCl)c(Cl)c1
UNIT OF MEASURE: h
half-life: 4.9

RECORD SMILES: CCS(=O)(=O)Nc1nccc(COc2ccc(C(C)(C)c3cc(Cl)c(OCCCl)c(C#N)c3)cc2)n1
UNIT OF MEASURE: h
half-life: 5

Moving on to another compound below.
Which half-life reading was recorded for the compound CCS(=O)(=O)Nc1nc(COc2ccc(C(C)(C)c3cc(Cl)c(OCCCl)c(C#N)c3)cc2)co1 ? 4.7
